Tested on: Aspergillus flavus
assay_procedure: Antimicrobial activity against Aspergillus flavus NCIM 524 assessed as growth inhibition by agar streak dilution method
Assay type: functional
property_measured: MIC (µg/mL)
Quick note: give the figure in µg/mL, leave out the unit.

molecule="NC(CCC(=O)n1c(OCc2ccccc2Cl)nc2ccccc2c1=O)C(=O)O (stereo not drawn)" property_measured=MIC reading_unit=µg/mL assay_result=40
molecule="NC(CCC(=O)n1c(-c2ccc(Cl)cc2)nc2ccccc2c1=O)C(=O)O (stereo not drawn)" property_measured=MIC reading_unit=µg/mL assay_result=15

Now consider the entry below.
Entry Nc1ccc(-c2nc3ccccc3c(=O)n2C(=O)CCC(N)C(=O)O)cc1 (stereo not drawn) under Aspergillus flavus had MIC of 50

###

System: Bacillus subtilis
assay_procedure: Antimicrobial activity against Bacillus subtilis NCIM 2999 assessed as growth inhibition by agar streak dilution method
Type: functional
A collection of molecules and their measured MIC
Quick note: give the figure in µg/mL, leave out the unit.

molecule="Nc1ccc(-c2nc3ccccc3c(=O)n2C(=O)CCC(N)C(=O)O)cc1 (stereo not drawn)" assay_result=30
molecule="NC(CCC(=O)n1c(-c2cc(F)cc(F)c2)nc2ccccc2c1=O)C(=O)O (stereo not drawn)" assay_result=15

Now consider the entry below.
The measured MIC associated with NC(CCC(=O)n1c(OCc2ccccc2Cl)nc2ccccc2c1=O)C(=O)O (stereo not drawn) reads 50

###

A collection of compounds and their measured zone of inhibition at 100 µg/mL
System: Pseudomonas aeruginosa
assay_procedure: Antimicrobial activity against Pseudomonas aeruginosa NCIM 5029 assessed as diameter of growth inhibition zone at 100 ug/ml after 24 hr by paper disk diffusion method
Type: functional
setup_conditions: NCIM 5029, 24 h, read-out: DIZ
Quick note: give the figure in mm, leave out the unit.

compound="NC(CCC(=O)n1c(OCc2ccccc2Cl)nc2ccccc2c1=O)C(=O)O (stereo not drawn)" property_measured="zone of inhibition at 100 µg/mL" assay_result=13
compound="NC(CCC(=O)n1c(-c2cc(F)cc(F)c2)nc2ccccc2c1=O)C(=O)O (stereo not drawn)" property_measured="zone of inhibition at 100 µg/mL" assay_result=14
compound="NC(CCC(=O)n1c(-c2ccc(Cl)cc2)nc2ccccc2c1=O)C(=O)O (stereo not drawn)" property_measured="zone of inhibition at 100 µg/mL" assay_result=12
compound="NC(CCC(=O)n1c(-c2ccc(F)c(F)c2F)nc2ccccc2c1=O)C(=O)O (stereo not drawn)" property_measured="zone of inhibition at 100 µg/mL" assay_result=14.8
compound="NC(CCC(=O)n1c(-c2ccc([N+](=O)[O-])cc2)nc2ccccc2c1=O)C(=O)O (stereo not drawn)" property_measured="zone of inhibition at 100 µg/mL" assay_result=11
compound="Cc1ccccc1-c1nc2ccccc2c(=O)n1C(=O)CCC(N)C(=O)O (stereo not drawn)" property_measured="zone of inhibition at 100 µg/mL" assay_result=11
compound="NC(CCC(=O)n1c(-c2ccccc2)nc2ccccc2c1=O)C(=O)O (stereo not drawn)" property_measured="zone of inhibition at 100 µg/mL" assay_result=12

The measured zone of inhibition at 100 µg/mL associated with COc1ccc(-c2nc3ccccc3c(=O)n2C(=O)CCC(N)C(=O)O)cc1 (stereo not drawn) reads 13
